target: TDP-43 (Homo sapiens, UniProt Q13148 1-414); assay: RNA Bind-n-Seq with designed 260-mer pool; 25 mM Tris-HCl, 150 mM KCl, 3 mM MgCl2, BSA (printed 500 mg/mL), 20 units/mL SUPERase IN; pH not stated; 500 nM RNA pool, 1 h, 4 C; TDP-43 5, 50, 500 nM; high values mean tight binding; conditions: protein: recombinant; tags: SBP (GST cleaved off with PreScission; pGEX-GST-SBP)
Sequence (Q13148 whole entry): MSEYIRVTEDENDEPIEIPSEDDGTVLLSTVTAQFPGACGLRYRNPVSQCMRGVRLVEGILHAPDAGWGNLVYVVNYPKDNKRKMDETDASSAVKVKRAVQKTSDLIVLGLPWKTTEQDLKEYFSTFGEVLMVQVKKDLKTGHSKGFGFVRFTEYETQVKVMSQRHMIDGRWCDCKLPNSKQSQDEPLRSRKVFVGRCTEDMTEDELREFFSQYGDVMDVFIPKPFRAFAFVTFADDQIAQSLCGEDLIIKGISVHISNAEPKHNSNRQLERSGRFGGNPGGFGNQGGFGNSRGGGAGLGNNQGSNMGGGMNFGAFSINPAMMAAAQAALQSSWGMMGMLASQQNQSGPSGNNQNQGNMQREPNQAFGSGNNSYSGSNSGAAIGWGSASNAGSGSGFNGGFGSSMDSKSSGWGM
Whole data set: some 9,900 sequences, median “r (bound/input frequency ratio)” near 0.7, cut for the highest 2% near 6.5. The entries come from a sample that favours the highest values as a whole.
measurementKind: binding signal

Just so you know, measured binding signal for ENSMUSG00000058297.39|Spock2 (ssRNA) RNA: GGGAGUUCUACAGUCCGACGAUCGCUUCGAUAUCCGCAUGCUAGGGGGAGGACUGGGGAGUGUGGCUUGUGUGUAUGUGUGAUAUGAGAUGUGUGUGUAUGAUGUGAGAUGUGAGUGUGUGAUGUGAGAUGUGUGUAUGUGAGAUGUGUGUGUGUGUGUGUGUGUGUGUGAUGUGAGUCACCCAAAGGUCCCUAUGUUAUUGAUUUUCAAAUGCACACUUUCACACACAAGGAUACACUAACAGACCAAAAUCAAUGAGAUGUCCCUGAUCCUGCCCCUCAGCCCAACACCUGGAAUCCCUGCCUCUUGCGGUCGCACUAGUGUGGAAUUCUCGGGUGUCAAGG came out at 5.98 R (bound/input frequency ratio)
